# IC50 per entry
System: 994946-033-R-J1-PDC complex spheroid viability
assay method text: Anticancer human tumor 994946-033-R-J1-PDC patient-derived melanoma cell line growth inhibition [POLQ]
study conditions: curve of first compound; second compound 0.316 µM
Please reply with the bare figure in µM and do not write the unit itself.

A selection of reference data follows.
O=C(c1cc(Cc2n[nH]c(=O)c3ccccc23)ccc1F)N1CCN(C(=O)C2CC2)CC1 + COC1C(OC(N)=O)C(O)C(Oc2ccc3c(O)c(NC(=O)c4ccc(O)c(CC=C(C)C)c4)c(=O)oc3c2C)OC1(C)C; 4.96
C=CCn1c(=O)c2cnc(Nc3ccc(N4CCN(C)CC4)cc3)nc2n1-c1cccc(C(C)(C)O)n1 + COC1C(OC(N)=O)C(O)C(Oc2ccc3c(O)c(NC(=O)c4ccc(O)c(CC=C(C)C)c4)c(=O)oc3c2C)OC1(C)C; 0.675

[in] # lookup: IC50 of CCCS(=O)(=O)Nc1ccc(F)c(C(=O)c2c[nH]c3ncc(-c4ccc(Cl)cc4)cc23)c1F + COC1C(OC(N)=O)C(O)C(Oc2ccc3c(O)c(NC(=O)c4ccc(O)c(CC=C(C)C)c4)c(=O)oc3c2C)OC1(C)C
[out] 5.14

* * *

Tested on: 994946-033-R-J1-PDC complex spheroid viability
assay method text: Anticancer human tumor 994946-033-R-J1-PDC cell line growth inhibition [POLQ];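 further: spheroids exposed to drugs for 7 days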;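 on viability, T/C: 100% = DMSO vehicle treated spheroids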
study conditions: second compound 10 µM; first compound 0.000316 µM; stronger effect = lower value
property name: viability, T/C (%)
Please reply with the bare figure in % and do not write the unit itself.

[in] # lookup: viability, T/C of CC[C@@]1(O)C(=O)OCc2c1cc1n(c2=O)Cc2cc3c(CN(C)C)c(O)ccc3nc2-1 + Nc1ccc(C#CCN(C(=O)Cc2ncc(C(F)(F)F)cc2C(F)(F)F)c2ccc(F)cc2)nn1
[out] 100

[in] # lookup: viability, T/C of Cn1ncnc1[C@H]1c2n[nH]c(=O)c3cc(F)cc(c23)N[C@@H]1c1ccc(F)cc1 + Nc1ccc(C#CCN(C(=O)Cc2ncc(C(F)(F)F)cc2C(F)(F)F)c2ccc(F)cc2)nn1
[out] 77.7

[in] # lookup: viability, T/C of Cn1ncnc1[C@H]1c2n[nH]c(=O)c3cc(F)cc(c23)N[C@@H]1c1ccc(F)cc1 + COC1C(OC(N)=O)C(O)C(Oc2ccc3c(O)c(NC(=O)c4ccc(O)c(CC=C(C)C)c4)c(=O)oc3c2C)OC1(C)C
[out] 89.5

* * *

Tested on: 994946-033-R-J1-PDC complex spheroid viability
assay method text: Anticancer human tumor 994946-033-R-J1-PDC cell line growth inhibition [POLQ];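 further: spheroids exposed to drugs for 7 days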
study conditions: curve of first compound; second compound 10 µM
# IC50 per entry

A selection of reference data follows.
CC(=O)O[C@H]1C(=O)[C@@]2(C)[C@H]([C@H](OC(=O)c3ccccc3)[C@]3(O)C[C@H](OC(=O)[C@H](O)[C@@H](NC(=O)c4ccccc4)c4ccccc4)C(C)=C1C3(C)C)[C@]1(OC(C)=O)CO[C@@H]1C[C@@H]2O + Cc1cccc(N(C)C(=O)C2C(O)CCN2c2nc(C)cc(C(F)(F)F)c2C#N)c1; < 9.49 nM
Nc1ccn(C2OC(CO)C(O)C2(F)F)c(=O)n1 (stereo not given) + Cc1cccc(N(C)C(=O)C2C(O)CCN2c2nc(C)cc(C(F)(F)F)c2C#N)c1; < 31.6 nM
CC1COCCN1c1cc(C2(O)CC3CCC(C2)O3)c2cnn(-c3ccn[nH]3)c2n1 (stereo not given) + Cc1cccc(N(C)C(=O)C2C(O)CCN2c2nc(C)cc(C(F)(F)F)c2C#N)c1; < 31.6 nM
C=CCn1c(=O)c2cnc(Nc3ccc(N4CCN(C)CC4)cc3)nc2n1-c1cccc(C(C)(C)O)n1 + Cc1cccc(N(C)C(=O)C2C(O)CCN2c2nc(C)cc(C(F)(F)F)c2C#N)c1; 915 nM

[in] # lookup: IC50 of CCc1cc2c(N3CCc4c(cc(Cn5ccnc5)cc4-c4cn(C)nc4C(F)(F)F)C3=O)ccnc2c(OC)n1 + Cc1cccc(N(C)C(=O)C2C(O)CCN2c2nc(C)cc(C(F)(F)F)c2C#N)c1
[out] > 10000 nM

Sourced from PubChem BioAssay AID1963827
